- Assay Procedure: Octanol/water partition coefficient, log P of the compound
- Format: physicochemical
Parameter logP: see the listing below.
Parameter Measured: logP

>>> print(df.to_string())
                                   compound  measurement
0  O=C(NCCN1CCOCC1)c1ccc(Cl)cc1 [MOCLOBEMIDE]         1.68
1  Cc1ccc2oc(=O)c(-c3cccc([N+](=O)[O-])c3)cc2c1          4.1
2  Cc1ccc2oc(=O)c(-c3ccccc3[N+](=O)[O-])cc2c1         4.07
3           Cc1ccc2oc(=O)c(-c3ccccc3N)cc2c1          3.6
4  Cc1ccc2oc(=O)c(-c3ccc([N+](=O)[O-])cc3)cc2c1         4.12
5         Cc1ccc2oc(=O)c(-c3cccc(N)c3)cc2c1         3.21
6         Cc1ccc2oc(=O)c(-c3ccc(N)cc3)cc2c1         3.24

* * *

- Assay Procedure: Permeability by PAMPA method
- Assay type: ADME
- Condition Summary: read-out: Peff
Parameter Measured: Papp

In [3]: df
Out[3]:
                         chemical_structure      measurement
0  Cc1ccc2oc(=O)c(-c3ccc([N+](=O)[O-])cc3)cc2c1  10.5 ×10⁻⁶ cm/s

* * *

- Species on record: Homo sapiens
- Assay Procedure: Selectivity index, ratio of IC50 for human recombinant MAOA to IC50 for human recombinant MAOB
// Ratio IC50 lookup, one value per entry
Parameter Measured: Ratio IC50

>>> df
                         chemical_structure  measurement
0  Cc1ccc2oc(=O)c(-c3ccc([N+](=O)[O-])cc3)cc2c1         2090
1         Cc1ccc2oc(=O)c(-c3ccc(N)cc3)cc2c1      > 25000
2  Cc1ccc2oc(=O)c(-c3ccccc3[N+](=O)[O-])cc2c1         > 18
3         Cc1ccc2oc(=O)c(-c3cccc(N)c3)cc2c1      > 50000
4  Cc1ccc2oc(=O)c(-c3cccc([N+](=O)[O-])c3)cc2c1      > 16700
5           Cc1ccc2oc(=O)c(-c3ccccc3N)cc2c1         > 46

* * *

- System Tested: Amine oxidase [flavin-containing] A (Homo sapiens)
- Sequence (P21397 whole entry): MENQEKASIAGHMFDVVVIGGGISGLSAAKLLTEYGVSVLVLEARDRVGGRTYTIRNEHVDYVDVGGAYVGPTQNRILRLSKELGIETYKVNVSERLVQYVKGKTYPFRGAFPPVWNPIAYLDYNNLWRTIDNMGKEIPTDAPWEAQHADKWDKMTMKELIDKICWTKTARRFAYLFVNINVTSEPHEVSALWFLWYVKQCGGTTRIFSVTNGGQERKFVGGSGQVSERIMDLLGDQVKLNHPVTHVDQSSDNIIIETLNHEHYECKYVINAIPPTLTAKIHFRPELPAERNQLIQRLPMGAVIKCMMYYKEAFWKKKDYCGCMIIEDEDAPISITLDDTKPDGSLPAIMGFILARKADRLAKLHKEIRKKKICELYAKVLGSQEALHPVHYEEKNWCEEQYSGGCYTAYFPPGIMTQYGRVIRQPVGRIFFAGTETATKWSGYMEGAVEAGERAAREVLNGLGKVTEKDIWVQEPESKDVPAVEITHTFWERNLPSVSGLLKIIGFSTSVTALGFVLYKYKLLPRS
- Assay Procedure: Inhibition of human recombinant MAOA expressed in BTI-TN-5B1-4 cells using p-tyramine substrate assessed as reduction in H2O2 production
- Assay type: cell-based
- Condition Summary: read-out: IC50
pIC50: −log10 of the molar value.
Parameter Measured: pIC50

>>> print(df.to_string())
                         chemical_structure  measurement
0  Cc1ccc2oc(=O)c(-c3ccc([N+](=O)[O-])cc3)cc2c1         5.38
